TARGET_ENTITY: human M1 muscarinic receptors (Homo sapiens, UniProt P11229)
Sequence (P11229 1-460): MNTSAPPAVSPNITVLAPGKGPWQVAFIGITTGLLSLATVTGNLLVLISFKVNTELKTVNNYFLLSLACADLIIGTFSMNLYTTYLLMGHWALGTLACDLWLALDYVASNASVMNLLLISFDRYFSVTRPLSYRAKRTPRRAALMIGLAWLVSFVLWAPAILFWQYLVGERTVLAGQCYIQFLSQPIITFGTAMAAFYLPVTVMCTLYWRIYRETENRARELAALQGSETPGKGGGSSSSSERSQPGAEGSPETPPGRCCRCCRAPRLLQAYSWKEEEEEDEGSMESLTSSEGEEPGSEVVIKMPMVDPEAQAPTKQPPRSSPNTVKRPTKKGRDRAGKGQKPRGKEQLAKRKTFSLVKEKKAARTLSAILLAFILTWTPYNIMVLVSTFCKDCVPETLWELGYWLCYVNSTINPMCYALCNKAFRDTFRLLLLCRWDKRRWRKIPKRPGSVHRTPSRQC
METHOD: [3H]-arachidonic acid release in CHO cells expressing M1 receptors, with and without ACh (single modulator concentration, four-parameter curves)
Type: cell-based
Design: expressed in transfected cells; host or cells: CHO cells stably transfected with hM1, obtained from Mark Brann's laboratory (NIH)
STATED_CONDITIONS: modulator 10 µM; 0.1 µM ACh; CHO-hM1; mean ± s.e.m.
// false (0) strictly below 0.4 in 0.1 µM ACh: response with modulator present divided by response to ACh alone; true (1) otherwise

Would you please look over these solved cases?
COMPOUND	CLASSIFICATION
CCN(CC)CCOc1ccc(CN2C(=O)C(=O)c3ccccc32)cc1	false (0)
COc1c(Br)cc(CN2C(=O)C(=O)c3ccccc32)cc1Br	true (1)

Query block: Exam item: decide whether the reported 0.1 µM ACh: response with modulator present divided by response to ACh alone for O=C1C(=O)N(Cc2cc(F)c(F)c(F)c2)c2ccccc21 is at least 0.4.
Result block: true (1)

Query block: API: above_or_equal(metric=0.1 µM ACh: response with modulator present divided by response to ACh alone, cutoff=0.4) for item COc1c(I)cc(CN2C(=O)C(=O)c3ccccc32)cc1I
Result block: true (1)

Query block: State whether the measured 0.1 µM ACh: response with modulator present divided by response to ACh alone reaches 0.4, counting equality as reaching it, for CCCCc1oc2ccccc2c1C(=O)c1cc(I)c(OCCN(CC)C(C)=O)c(I)c1
Result block: true (1)

Query block: Decide: 0.1 µM ACh: response with modulator present divided by response to ACh alone of CCCCc1oc2ccc(NS(C)(=O)=O)cc2c1C(=O)c1ccc(OCCCN(CCCC)CCCC)cc1 [Dronedarone, reference compound] >= 0.4?
Result block: false (0)

Query block: Check the entry CCCCc1oc2ccccc2c1C(=O)c1cc(I)c(OCC[N+](CC)(CC)CC)c(I)c1 [Compound 2, N-ethyl amiodarone, reference compound] : does 0.1 µM ACh: response with modulator present divided by response to ACh alone equal or exceed 0.4?
Result block: false (0)

====

TARGET_ENTITY: human M1 muscarinic receptors (Homo sapiens, UniProt P11229)
Sequence (P11229 1-460): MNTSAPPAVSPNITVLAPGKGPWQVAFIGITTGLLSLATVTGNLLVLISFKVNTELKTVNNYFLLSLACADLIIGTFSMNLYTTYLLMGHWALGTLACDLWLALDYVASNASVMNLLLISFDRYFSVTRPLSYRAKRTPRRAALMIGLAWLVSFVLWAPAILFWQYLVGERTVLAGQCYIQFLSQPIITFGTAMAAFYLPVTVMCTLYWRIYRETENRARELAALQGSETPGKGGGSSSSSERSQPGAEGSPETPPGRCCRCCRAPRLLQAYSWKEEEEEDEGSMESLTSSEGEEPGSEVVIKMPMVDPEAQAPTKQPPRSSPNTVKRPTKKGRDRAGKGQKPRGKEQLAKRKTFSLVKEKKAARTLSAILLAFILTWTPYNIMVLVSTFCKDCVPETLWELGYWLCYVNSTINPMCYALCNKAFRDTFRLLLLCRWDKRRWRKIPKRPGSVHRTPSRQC
METHOD: [3H]-arachidonic acid release in CHO cells expressing M1 receptors, with and without ACh (single modulator concentration, four-parameter curves)
Assay type: cell-based
Design: expressed in transfected cells; host or cells: CHO cells stably transfected with hM1, obtained from Mark Brann's laboratory (NIH)
STATED_CONDITIONS: modulator 10 µM; 100 µM ACh; CHO-hM1; mean ± s.e.m.
# if measured 100 µM ACh: response with modulator present divided by response to ACh alone < 1: T  # else: F

Before answering, review these 2 worked examples.
COMPOUND	TARGET_ENTITY	CLASSIFICATION
CCCCc1oc2ccccc2c1C(=O)c1ccc(OC)cc1 [Compound 6a]	human M1 muscarinic receptors (Homo sapiens, UniProt P11229)	F
COc1ccc(CN2C(=O)C(=O)c3ccccc32)cc1I [Compound 8b]	human M1 muscarinic receptors (Homo sapiens, UniProt P11229)	F

Query block: Does the reported 100 µM ACh: response with modulator present divided by response to ACh alone of CCCCc1oc2ccccc2c1C(=O)c1ccc(O)cc1 [Compound 4, reference compound] stay below 1?
Result block: T

Query block: For this compound, is 100 µM ACh: response with modulator present divided by response to ACh alone lower than 1? COc1c(F)cc(CN2C(=O)C(=O)c3ccccc32)cc1F [Compound 8g]
Result block: T

Query block: Regarding O=C1C(=O)N(Cc2cc(F)c(F)c(F)c2)c2ccccc21 [Compound 8i] , kindly confirm whether its 100 µM ACh: response with modulator present divided by response to ACh alone is beneath 1.
Result block: F

Query block: is_below(100 µM ACh: response with modulator present divided by response to ACh alone, 1) for COc1cc(CN2C(=O)C(=O)c3ccccc32)cc(OC)c1OC [Compound 8k] ?
Result block: T

Query block: Bench note: check whether CCCCc1oc2ccccc2c1C(=O)c1cc(I)c(OCC[N+](CC)(CC)CC)c(I)c1 [Compound 2, N-ethyl amiodarone, reference compound] shows 100 µM ACh: response with modulator present divided by response to ACh alone below 1
Result block: T

Query block: Threshold test, 100 µM ACh: response with modulator present divided by response to ACh alone < 1: COc1cccc(CN2C(=O)C(=O)c3ccccc32)c1 [Compound 8j, 1-(3-methoxybenzyl)indoline-2,3-dione]
Result block: T

Query block: For COc1c(Br)cc(CN2C(=O)C(=O)c3ccccc32)cc1Br [Compound 8c] , is the recorded 100 µM ACh: response with modulator present divided by response to ACh alone below the cut-off of 1?
Result block: F

Query block: Strictly below 1: is that where 100 µM ACh: response with modulator present divided by response to ACh alone of COc1ccc(CN2C(=O)C(=O)c3ccccc32)cc1Cl [Compound 8f] sits?
Result block: F

Query block: A record lists COc1c(I)cc(CN2C(=O)C(=O)c3ccccc32)cc1I [Compound 8a] . Is its 100 µM ACh: response with modulator present divided by response to ACh alone below 1?
Result block: F

Query block: Could you please tell me whether 100 µM ACh: response with modulator present divided by response to ACh alone recorded for CCN(CC)CCOc1c(Br)cc(CN2C(=O)C(=O)c3ccccc32)cc1Br.Cl [Compound 8l] is less than 1?
Result block: T

Query block: In the record for CCCCc1oc2ccccc2c1C(=O)c1cc(I)c(OCCNCC)c(I)c1.Cl [Compound 1] , is 100 µM ACh: response with modulator present divided by response to ACh alone less than 1?
Result block: T

====

System: wild-type (AB) zebrafish (Danio rerio)
METHOD: Maximum tolerated concentration (MTC) determination in larval zebrafish
Type: in vivo
STATED_CONDITIONS: after 24 h exposure; 5 dpf larvae
# reported MTC (maximum tolerated concentration); entries follow
// note: answer is a bare numeric in µM

COMPOUND	TARGET_ENTITY	UNIT_ABBREVIATION	MTC (maximum tolerated concentration)
O=C1C(=O)N(Cc2ccc(O)cc2)c2ccccc21 [Compound 10, 1-(4-hydroxybenzyl)indoline-2,3-dione]	wild-type (AB) zebrafish (Danio rerio)	µM	10
COc1ccc(CN2C(=O)C(=O)c3ccccc32)cc1F [Compound 8h]	wild-type (AB) zebrafish (Danio rerio)	µM	30
COc1c(Cl)cc(CN2C(=O)C(=O)c3ccccc32)cc1Cl [Compound 8e]	wild-type (AB) zebrafish (Danio rerio)	µM	100

Here's the next entry for you.
Query block: Specify MTC (maximum tolerated concentration) for COc1ccc(CN2C(=O)C(=O)c3ccccc32)cc1I [Compound 8b] and stop.
Result block: 10

====

Some compounds, each annotated with its measured 100 µM ACh: response with modulator present divided by response to ACh alone.
TARGET_ENTITY: human M1 muscarinic receptors (Homo sapiens, UniProt P11229)
METHOD: [3H]-arachidonic acid release in CHO cells expressing M1 receptors, with and without ACh (single modulator concentration, four-parameter curves)
Assay type: cell-based
Parameters: expressed in transfected cells; host or cells: CHO cells stably transfected with hM1, obtained from Mark Brann's laboratory (NIH)
STATED_CONDITIONS: modulator 10 µM; 100 µM ACh; CHO-hM1; mean ± s.e.m.
In your answer, state the number alone without any accompanying words.

COMPOUND	TARGET_ENTITY	OBSERVED_VALUE
CCCCc1oc2ccccc2c1C(=O)c1cc(I)c(OC)c(I)c1	human M1 muscarinic receptors (Homo sapiens, UniProt P11229)	1.36

Query block: Supply recorded 100 µM ACh: response with modulator present divided by response to ACh alone for COc1ccc(CN2C(=O)C(=O)c3ccccc32)cc1F here.
Result block: 0.97

Query block: Complete the entry with 100 µM ACh: response with modulator present divided by response to ACh alone for O=C1C(=O)N(Cc2ccc(O)cc2)c2ccccc21 [Compound 10, 1-(4-hydroxybenzyl)indoline-2,3-dione]
Result block: 0.92

Query block: Supply measured 100 µM ACh: response with modulator present divided by response to ACh alone of CCCCc1oc2ccccc2c1C(=O)c1ccc(OCCN(CC)CC)cc1 in your reply.
Result block: 1.04

Query block: Read off the recorded 100 µM ACh: response with modulator present divided by response to ACh alone for CCCCc1oc2ccccc2c1C(=O)c1cc(I)c(OCCN(CC)C(C)=O)c(I)c1
Result block: 1.47

Query block: Give me measured 100 µM ACh: response with modulator present divided by response to ACh alone, please, for this compound: CCCCc1oc2ccc(NS(C)(=O)=O)cc2c1C(=O)c1ccc(OCCCN(CCCC)CCCC)cc1 [Dronedarone, reference compound]
Result block: 0.75

Query block: // fetch 100 µM ACh: response with modulator present divided by response to ACh alone given entry CCN(CC)CCOc1ccc(CN2C(=O)C(=O)c3ccccc32)cc1
Result block: 1.11

Query block: Find the measured 100 µM ACh: response with modulator present divided by response to ACh alone of COc1ccc(CN2C(=O)C(=O)c3ccccc32)cc1Br and report it.
Result block: 0.90

Query block: Note 100 µM ACh: response with modulator present divided by response to ACh alone for the compound shown: CCCCc1oc2ccccc2c1C(=O)c1cc(I)c(O)c(I)c1 [Compound 3, reference compound]
Result block: 0.90

Query block: Item O=C1C(=O)N(Cc2ccc(Br)cc2)c2ccccc21 [VU0119498, reference compound] : provide 100 µM ACh: response with modulator present divided by response to ACh alone
Result block: 1.03

Query block: Using known records, supply 100 µM ACh: response with modulator present divided by response to ACh alone for COc1c(Cl)cc(CN2C(=O)C(=O)c3ccccc32)cc1Cl
Result block: 1.21
